Reported values of hERG current change (%, negative = inhibition) at 10uM for individual entries
- target_under_test: human ether-à-go-go-related gene (hERG) potassium channel (human);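 further: peak tail current of the secondary pulse compared with the same well before compound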
- experimental_protocol: primary screen, population patch clamp on CHO cells stably expressing hERG; higher = less effect of the substance
About 14,000 (4.5%) of roughly 310,000 compounds showed an effect of 50% or more. The effect is printed as a negative number. The sample holds strong results, similar compounds and a random draw of the others, so the mix is not that of the screen.
Express it in %; write the number only.

Below: 3 compounds and their reported hERG current change (%, negative = inhibition) at 10uM.
compound | reported
CSc1ccc(/C=C/C(=O)NC23CC4CC(CC(C4)C2)C3)cc1 | 14.6
O=C(CN1CCN(Cc2ccccc2)CC1)NC(c1ccccc1)c1ccccc1.O=C(O)C(=O)O | -59.8
CC(CCc1ccccc1)NC(=O)CN1CCc2ccccc2C1 (stereo not drawn) | -22.4

Give its hERG current change (%, negative = inhibition) at 10uM value. Item: `O=C(O)C(=O)O.c1ccc(CN2CCN(C(c3ccccc3)c3ccccc3)CC2)cc1` 2.22

Which hERG current change (%, negative = inhibition) at 10uM is listed for `O=C(c1ccc(CS(=O)(=O)c2ccc(Br)cc2)o1)N1CCN(c2ccc(F)cc2)CC1` ? 6.91

Can you share its hERG current change (%, negative = inhibition) at 10uM? I mean this compound: `Cc1ccc(S(=O)(=O)Cc2ccc(C(=O)N3CCN(c4ccc(F)cc4)CC3)o2)cc1` -69.5

What hERG current change (%, negative = inhibition) at 10uM value was documented for this compound, `N#CC1(NC(=O)CSc2nnc(C3CC3)n2C2CC2)CCCCC1` ? -8.52

Need hERG current change (%, negative = inhibition) at 10uM of `COc1ccccc1NC(=O)c1cc(S(=O)(=O)N2CCC3(CC2)OCCO3)ccc1F` , thanks. -4.73

Param item = `COc1ccc(CNC(=O)Cc2nn(C)c(=O)c3ccccc23)cc1` ; retrieve measured hERG current change (%, negative = inhibition) at 10uM. -14.2

* * *

- target_under_test: human ether-à-go-go-related gene (hERG) potassium channel (human, UniProt Q12809);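 further: peak tail current of the secondary pulse compared with the same well before compound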
- Sequence (Q12809 whole entry, looked up): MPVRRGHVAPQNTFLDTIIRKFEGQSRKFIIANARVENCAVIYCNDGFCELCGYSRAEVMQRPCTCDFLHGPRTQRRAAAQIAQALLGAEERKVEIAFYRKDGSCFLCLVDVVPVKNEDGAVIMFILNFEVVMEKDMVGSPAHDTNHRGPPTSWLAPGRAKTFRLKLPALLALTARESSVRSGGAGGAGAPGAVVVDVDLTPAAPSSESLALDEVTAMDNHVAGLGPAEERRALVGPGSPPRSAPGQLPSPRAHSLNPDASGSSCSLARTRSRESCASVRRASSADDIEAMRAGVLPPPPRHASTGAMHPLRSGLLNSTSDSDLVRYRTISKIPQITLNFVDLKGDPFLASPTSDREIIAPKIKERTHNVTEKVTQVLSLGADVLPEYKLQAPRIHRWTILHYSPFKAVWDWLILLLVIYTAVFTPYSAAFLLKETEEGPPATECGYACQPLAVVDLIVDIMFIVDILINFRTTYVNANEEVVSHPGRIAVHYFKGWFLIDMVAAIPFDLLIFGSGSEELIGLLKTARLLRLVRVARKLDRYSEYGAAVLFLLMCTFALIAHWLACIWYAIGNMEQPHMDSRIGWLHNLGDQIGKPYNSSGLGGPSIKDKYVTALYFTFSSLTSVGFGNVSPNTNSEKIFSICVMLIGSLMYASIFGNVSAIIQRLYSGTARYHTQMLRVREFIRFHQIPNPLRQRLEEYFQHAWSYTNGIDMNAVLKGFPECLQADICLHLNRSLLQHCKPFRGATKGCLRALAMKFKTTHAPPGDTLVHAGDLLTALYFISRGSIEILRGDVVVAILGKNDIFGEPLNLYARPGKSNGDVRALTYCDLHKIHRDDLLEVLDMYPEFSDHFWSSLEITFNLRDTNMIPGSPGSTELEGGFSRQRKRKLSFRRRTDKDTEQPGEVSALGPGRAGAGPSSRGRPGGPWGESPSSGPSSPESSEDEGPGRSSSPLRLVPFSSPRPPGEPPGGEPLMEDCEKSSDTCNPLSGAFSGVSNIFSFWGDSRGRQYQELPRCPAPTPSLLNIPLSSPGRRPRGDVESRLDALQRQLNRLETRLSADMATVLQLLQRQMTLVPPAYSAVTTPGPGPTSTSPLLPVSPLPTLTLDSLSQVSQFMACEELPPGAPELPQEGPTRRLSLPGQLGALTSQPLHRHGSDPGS
- experimental_protocol: primary screen, population patch clamp on CHO cells stably expressing hERG; higher = less effect of the substance
- Protocol: Briefly, Chinese hamster ovary (CHO) cells stably expressing the hERG channel were dislodged from tissue culture flasks and dispensed into PPC plates. […] During the recording, background leak currents were estimated by a 100 ms step to -80 mV from an initial holding potential of -70 mV and subtracted from the subsequent current measurement. The campaign was conducted in two phases using slight differences in recording protocol. […]
The campaign covered roughly 310,000 compounds. About 14,000 (4.5%) showed an effect of 50% or more. The effect is printed as a negative number. The entries come from a sample that favours strong results as a whole.
Recorded hERG current change (%, negative = inhibition) at 10uM for the following compounds
Report as a plain number; the unit % is understood.

compound | target_under_test | reported
CC(C)OCCCn1c(=O)c2ccccc2n2c(CCC(=O)NC3CCN(Cc4ccccc4)CC3)nnc12 | human ether-à-go-go-related gene (hERG) potassium channel (human, UniProt Q12809) | -51.4
N#Cc1c(Cl)nsc1NCCN1CCOCC1 | human ether-à-go-go-related gene (hERG) potassium channel (human, UniProt Q12809) | 15.4
O=C1CCC(=O)N1OCCCOc1ccc2c(c1)CCC2 | human ether-à-go-go-related gene (hERG) potassium channel (human, UniProt Q12809) | 1.61
CCCC(c1nnnn1Cc1ccc(F)cc1)N1CCN(C)CC1 (stereo not shown) | human ether-à-go-go-related gene (hERG) potassium channel (human, UniProt Q12809) | -2.88
Cc1cccc(C)c1NC(=O)COC(=O)c1ccccc1O | human ether-à-go-go-related gene (hERG) potassium channel (human, UniProt Q12809) | 1.57

Notebook: pull reported hERG current change (%, negative = inhibition) at 10uM for human ether-à-go-go-related gene (hERG) potassium channel (human, UniProt Q12809), entry CN(C)CC1CCCCC1OC(=O)c1ccc(S(=O)(=O)N(C)c2ccccc2)cc1 (stereo not shown) 17.8

Give hERG current change (%, negative = inhibition) at 10uM (human ether-à-go-go-related gene (hERG) potassium channel (human, UniProt Q12809)) of the following compound: `COC(=O)c1ccc(CSc2ccc3nnc(-c4ccccc4)n3n2)o1` -53.5

I'm curious: which hERG current change (%, negative = inhibition) at 10uM was measured for `CCN(CC)C(=N)/C(C#N)=N/Nc1ccccc1` tested on human ether-à-go-go-related gene (hERG) potassium channel (human, UniProt Q12809)? -15.7

GET /values?readout=hERG current change (%, negative = inhibition) at 10uM&system=human ether-à-go-go-related gene (hERG) potassium channel (human, UniProt Q12809)&item= CC1CCc2c(sc3nc4n(c(=O)c23)CCS4)C1 (stereo not shown) -10.3

Item: CC(C)CCNC(=O)C1CCC(=O)N1CCc1ccccc1 (stereo not shown) Test system: human ether-à-go-go-related gene (hERG) potassium channel (human, UniProt Q12809) Read-out: hERG current change (%, negative = inhibition) at 10uM Value: ? 9.14

Form entry - test system: human ether-à-go-go-related gene (hERG) potassium channel (human, UniProt Q12809); read-out: hERG current change (%, negative = inhibition) at 10uM; compound: `CCOc1ncccc1C(=O)Nc1cc(S(=O)(=O)N2CCCCC2)ccc1Cl` 20.5

Source: paper PMC4336329
